Entry source: ChEMBL document CHEMBL3885881

# Species on record: Rattus norvegicus
# EXPERIMENT NOTES: DrugMatrix - Regimen: Daily Repeat
# Format: toxicity, organism-based, Sprague-Dawley
# Set-up: regimen Daily Repeat, gender Male, age 6-8 weeks
# CONDITIONS: in vivo, po, 0 mg/kg, 72 h, tissue Blood, route oral GAVAGE, dose level Control, time 3 day, […]
// reported MEAN CORPUSCULAR HEMOGLOBIN CONCENTRATION per item
All answers are understood in G/DL, so give the number only.

Consider the compound `Oc1ncnc2[nH]ncc12` and give its measured MEAN CORPUSCULAR HEMOGLOBIN CONCENTRATION.
39.82

Similarly, `c1ccc2c(c1)Nc1ccccc1S2` ?
39.62

Next up: `CCOC(=O)C1=C(C)NC(C)=C(C(=O)OCC)C1c1ccccc1/C=C/C(=O)OC(C)(C)C`
39.05

Similarly, `CO[C@H]1O[C@@H]2O[C@@]3(C)CC[C@H]4[C@H](C)CC[C@@H]([C@H]1C)[C@@]24OO3` ?
37.72

Could you do the same for O=C(Nc1ccc(Cl)c(Cl)c1)c1cc(Cl)cc(Cl)c1O [3,3',4',5-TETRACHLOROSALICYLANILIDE] , please?
38.1

Also `CCC(C)(C)C(=O)O[C@H]1C[C@@H](C)C=C2C=C[C@H](C)[C@H](CC[C@@H]3C[C@@H](O)CC(=O)O3)[C@H]21` ?
39.85

// repeat for COc1ccccc1OCCNCC(O)COc1cccc2[nH]c3ccccc3c12 (stereo not drawn) and report
39.03

Can you check Cc1cccc(C)c1NC(=O)C(C)N (stereo not drawn) [TOCAINIDE] next?
37.92

* * *

# Species: Rattus norvegicus
# EXPERIMENT NOTES: DrugMatrix - Regimen: Daily Repeat
# Type: toxicity, organism-based, Sprague-Dawley
# Design: regimen Daily Repeat, gender Male, age 6-8 weeks
# CONDITIONS: in vivo, po, 0 mg/kg, 72 h, tissue Plasma, route oral GAVAGE, dose level Control, time 3 day, vehicle .5 % CMC
OUTCOME MEASURE: POTASSIUM (MEQ/L)
Respond with the bare value in MEQ/L.

As a guide, the following entries are already answered.
For CCOc1cc(N)c(Cl)cc1C(=O)NCC1CN(Cc2ccc(F)cc2)CCO1 (configuration not stated) [MOSAPRIDE] , what is its reported POTASSIUM?
6.37

// same read-out, input: CCN1CCCC1CNC(=O)c1cc(S(N)(=O)=O)ccc1OC (configuration not stated) [SULPIRIDE]
7.13

Same question, CC(C)NCC(O)COc1ccc(CC(N)=O)cc1 (configuration not stated) this time
6.78

Others:
Recorded POTASSIUM for NCC(CC(=O)O)c1ccc(Cl)cc1 (configuration not stated) , please?
6.37

Next compound: COc1cc(/C=C/C(=O)O)ccc1O [FERULATE]
6.41

Could you do the same for COc1ccc(Cl)cc1C(=O)NCCc1ccc(S(=O)(=O)NC(=O)NC2CCCCC2)cc1 [GLYBURIDE] , please?
6.23

What about this compound? CCN(CC)CCNC(=O)c1cc(Cl)c(N)cc1OC [METOCLOPRAMIDE]
6.9

Next compound: NC(=O)NC(=O)Cc1ccccc1 [PHENACEMIDE]
6.52

Check Cl.NC[C@H]1CC[C@H](C(=O)Oc2ccc(CCC(=O)O)cc2)CC1 [CETRAXATE HYDROCHLORIDE] too.
6.41

Please do the same for CN(C)CCOC(c1ccccc1)c1ccccc1.Cn1c(=O)c2[nH]c(Cl)nc2n(C)c1=O [DIMENHYDRINATE] as well.
6.2

Cool, now `O=C(O)CCc1nc(-c2ccccc2)c(-c2ccccc2)o1`
7.13

Another compound to look at: `O=C1c2ccccc2C(=O)C1c1ccccc1`
7
